Data provenance: PubChem BioAssay (NCI)

- Test system: MALME-3M melanoma
- protocol-notes: NCI tumour cell line growth inhibition, 48 h
observed-property: TGI

CNC[C@@H](NC(=O)c1ccc(-c2nc([C@H]3CC[C@H](O)[C@@H](F)C3)cnc2N)cc1F)c1cc(F)cc(Br)c1; 28.9 µM

Query Cc1ccc2cc3cccc(C(=O)NCCN(C)C)c3nc2c1 yields TGI of 2.49 µM

Query Nc1c(C(=O)c2cccc(-c3ccncc3)c2)cnn1-c1ccc(F)cc1 yields TGI of > 25 µM

Query CCCCCCCCCCCCCC(=S)N/C=C/OC yields TGI of > 100 µM

Query c1ccc(-c2nc([P+](c3ccccc3)(c3ccccc3)c3ccccc3)c(N3CCOCC3)o2)cc1 yields TGI of 6.13 µM
